Test system: PPARg:RXRa (NR concentration 180 nM, RXRa partner concentration 90 nM)
test_name: PBM binding z-score (relative to random genomic background probes); higher = stronger binding; sequences stand for … in GC…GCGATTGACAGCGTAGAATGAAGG
Measured PBM binding z-score by item
Please reply with the value in numeric form only.

Some sequences with known PBM binding z-score results, for comparison:
{"construct_sequence": "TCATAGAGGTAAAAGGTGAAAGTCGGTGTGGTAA", "PBM binding z-score": 6.33}
{"construct_sequence": "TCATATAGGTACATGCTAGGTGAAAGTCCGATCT", "PBM binding z-score": 0.699}
{"construct_sequence": "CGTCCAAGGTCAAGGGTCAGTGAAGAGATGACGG", "PBM binding z-score": 8.85}
{"construct_sequence": "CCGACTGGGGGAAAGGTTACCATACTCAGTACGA", "PBM binding z-score": 9.9}
{"construct_sequence": "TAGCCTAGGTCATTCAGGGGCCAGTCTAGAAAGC", "PBM binding z-score": 1.75}

Which PBM binding z-score reading was recorded for the sequence "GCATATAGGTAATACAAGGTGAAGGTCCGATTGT" ?
1.25

Need PBM binding z-score of "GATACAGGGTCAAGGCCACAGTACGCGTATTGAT" , thanks.
6.37

What value of PBM binding z-score has been recorded for this entry: "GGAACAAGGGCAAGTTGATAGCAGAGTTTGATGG"
1.04

Entry "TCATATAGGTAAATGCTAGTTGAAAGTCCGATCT" : reported PBM binding z-score = ?
0.625

Look up PBM binding z-score: "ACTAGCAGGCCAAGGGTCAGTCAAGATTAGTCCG"
6.42

Param item = "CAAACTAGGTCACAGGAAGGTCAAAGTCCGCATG" ; retrieve measured PBM binding z-score.
9.73

Given "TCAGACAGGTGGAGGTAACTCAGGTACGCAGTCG" , state its recorded PBM binding z-score.
0.357

Look up PBM binding z-score: "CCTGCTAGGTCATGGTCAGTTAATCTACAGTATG"
2.31

###

System: PXR:RXRa (NR concentration 270 nM, RXRa partner concentration 90 nM)
test_name: PBM binding z-score (relative to random genomic background probes); higher = stronger binding; sequences stand for … in GC…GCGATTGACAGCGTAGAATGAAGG
Reported PBM binding z-score by item:

These solved cases illustrate the format of a correct answer.
{"construct_sequence": "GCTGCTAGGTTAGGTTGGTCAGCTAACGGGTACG", "PBM binding z-score": -0.364}
{"construct_sequence": "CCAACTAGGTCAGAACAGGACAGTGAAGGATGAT", "PBM binding z-score": 1.13}
{"construct_sequence": "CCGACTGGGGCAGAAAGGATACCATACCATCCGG", "PBM binding z-score": -0.951}
{"construct_sequence": "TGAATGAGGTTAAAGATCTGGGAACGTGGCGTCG", "PBM binding z-score": 1.19}
{"construct_sequence": "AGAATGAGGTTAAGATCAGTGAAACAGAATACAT", "PBM binding z-score": 1}

Any idea what PBM binding z-score was measured for "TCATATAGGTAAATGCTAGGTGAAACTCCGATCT" ?
0.57

# PBM binding z-score lookup, item "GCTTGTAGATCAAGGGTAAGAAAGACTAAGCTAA"
-0.426

Need PBM binding z-score, item "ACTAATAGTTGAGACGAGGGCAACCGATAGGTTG"
2.33

Tell me the measured PBM binding z-score of "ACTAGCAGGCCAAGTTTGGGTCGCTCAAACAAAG" , please.
-0.33

Look at this sequence and give its reported PBM binding z-score. "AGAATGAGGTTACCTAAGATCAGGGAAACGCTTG"
1.67

Form field: reported PBM binding z-score of "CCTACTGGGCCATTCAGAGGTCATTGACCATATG"
4.93

Given the entry "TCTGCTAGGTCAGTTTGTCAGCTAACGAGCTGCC" , report its measured PBM binding z-score.
0.322

Give the measured PBM binding z-score of "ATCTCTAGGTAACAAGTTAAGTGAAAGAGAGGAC" .
0.289

State the recorded PBM binding z-score for this entry: "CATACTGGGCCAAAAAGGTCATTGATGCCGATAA"
4.68
